Target: T1, Nck (human, WT, residues 1-377) (human)
T1 construct: two extra N-terminal residues printed before Met1; Nck, human, WT, residues 1-377; source: E. coli BL21(DE3)T1R, purified (glutathione sepharose, TEV on beads, Source 15Q, Source 15S, SD75)
Assay: ITC; Nck (150 uM) in the syringe titrated into 5 uM p-Nephrin (3pY) or p-TIR (3pY); 25 mM Hepes pH 7.5, 150 mM NaCl, 1 mM MgCl2, 2 mM TCEP; three-site binding model with a single affinity for Nck (NITPIC, Sedphat); the constant is that of one pTyr site
Conditions: both partners purified
pKd: −log10 of the molar value.

{"Binder": "triply phosphorylated TIR3Y (His8-tagged human Nephrin tail with its pTyr sites replaced by the pTyr motif of EPEC Tir) (domain or fragment, phosphotyrosine in each of the three Tir motifs (triply phosphorylated); fluorescent in the bilayer experiments, N-terminal stretch as printed: holds the His8 tag named under tags, the Gly-Gly-Ser linker with the cysteine, and HM before the first Tir motif; Nephrin, human, stretch between the first and second pTyr sites; Nephrin, human, stretch between the second and third pTyr sites, with Phe at 1210 as in Nephrin3Y; also called p-TIR; p-TIR (3pY); source: E. coli BL21(DE3)T1R, purified (told for …)) GGSLEHHHHHHHHGGSCGGSGGSGGSGGSHMHIYDEVAADPPPSGAWGHIYDEVAADPWDLHWPEDTFQDPRHIYDEVAADP", "pKd": 7.40}
{"Binder": "triply phosphorylated His8-tagged Nephrin cytoplasmic tail (amino acids 1174-1223, Y1183F, Y1210F; pTyr1176, pTyr1193, pTyr1217) (domain or fragment, human, phosphotyrosine at Tyr1176, Tyr1193 and Tyr1217; maleimide Alexa488 on the single cysteine of the linker (bilayer experiments), N-terminal stretch as printed: holds the His8 tag named under tags and the (Gly-Gly-Ser)5 linker with the cysteine that is labelled; Nephrin, human, cytoplasmic tail residues 1174-1223 with Y1183F and Y1210F; also called p-Nephrin; Nephrin3Y (before phosphorylation); source: E. coli BL21(DE3)T1R, purified (Ni-NTA, Source 15Q, SD200); phosphorylated with Lck kinase and purified again (Source 15Q, …)) GGSLEHHHHHHHHGGSCGGSGGSGGSGGSHLYDEVERTFPPSGAWGPLYDEVQMGPWDLHWPEDTFQDPRGIYDQVAGD", "pKd": 6.43}
